Biological target: CDK2/CycE (Homo sapiens)
Construct: GST
Test: CDK2/Cyclin E Kinase Assay
Details: CDK2/CycE HTRF, 10 μM ATP; read-out: CDK2 activity (assay 6)
pIC50: −log10 of the molar value.
parameter: pIC50

Example compounds with recorded pIC50:
- compound: "CCNc1nc(Nc2ccc(S(C)(=N)=O)cc2)ncc1C#Cc1ccc(F)c(C)c1 (racemic) [Example 1.24]"
  pIC50: "< 5.00"
- compound: "CCc1ccc(C#Cc2cnc(Nc3ccc(S(C)(=N)=O)cc3)nc2N[C@H](C)CO)cc1 (mixture of isomers) [Example 1.8]"
  pIC50: "< 5.00"
- compound: "C[C@H](CO)Nc1nc(Nc2cccc(S(C)(=N)=O)c2)ncc1C#Cc1cccc(O)c1 (mixture of isomers) [Example 1.18]"
  pIC50: "5.00 to 6.00"
- compound: "Cc1ccccc1C#Cc1cnc(Nc2ccc(S(C)(=N)=O)cc2)nc1N[C@H](C)CO (mixture of isomers) [Example 1.3]"
  pIC50: "5.00 to 6.00"
- compound: "COc1ccc(C#Cc2cnc(Nc3cccc(S(C)(=N)=O)c3)nc2N[C@H](C)CO)cc1 (mixture of isomers) [Example 1.17]"
  pIC50: "< 5.00"
- compound: "C[C@H](CO)Nc1nc(Nc2ccc(S(C)(=N)=O)cc2)ncc1C#Cc1ccccc1 (mixture of isomers) [Example 1.2]"
  pIC50: "< 5.00"

# input for lookup
Entry CC(C)NC(=O)N=S(C)(=O)c1cccc(Nc2ncc(C#Cc3cccc(O)c3)c(N[C@H](C)CO)n2)c1 (mixture of isomers) [Example 1.15] has what pIC50?
5.00 to 6.00
